IC50 values, listed per item
# System: Vero
# method_summary: Concentration required to reduce Coxsackie virus-inducted cytopathicity by 50% (Vero cells)
# Format: functional, cell-based
# cond: Chlorocebus sabaeus

compound="O=C(O)CC(SCCCOC[C@H]1O[C@@H](O[C@H]2[C@H](OCCCSC(CC(=O)O)C(=O)O)[C@@H](OCCCSC(CC(=O)O)C(=O)O)C(OCCCSC(CC(=O)O)C(=O)O)O[C@@H]2COCCCSC(CC(=O)O)C(=O)O)[C@H](OCCCSC(CC(=O)O)C(=O)O)[C@@H](OCCCSC(CC(=O)O)C(=O)O)[C@@H]1OCCCSC(CC(=O)O)C(=O)O)C(=O)O (some centres not stated)" system_tested=Vero measurement_kind=IC50 endpoint_result="> 181 µM"

Shift focus to the following entry.
Summary for this compound, O=C(O)CC(SCCCOC[C@H]1O[C@@H](O[C@H]2[C@H](OCCCSC(CC(=O)O)C(=O)O)[C@@H](OCCCSC(CC(=O)O)C(=O)O)[C@@H](OCCCSC(CC(=O)O)C(=O)O)O[C@@H]2COCCCSC(CC(=O)O)C(=O)O)[C@H](OCCCSC(CC(=O)O)C(=O)O)[C@@H](OCCCSC(CC(=O)O)C(=O)O)[C@@H]1OCCCSC(CC(=O)O)C(=O)O)C(=O)O (some centres not stated) : IC50 is > 181 µM

###

# System: Vero
# method_summary: Concentration required to cause a microscopically detectable alteration of normal Vero cell morphology
# Type: functional, cell-based
# cond: Chlorocebus sabaeus
Item-by-item account of IC50

compound=O=S(=O)(O)CCSCCCOC[C@H]1O[C@@](COCCCSCCS(=O)(=O)O)(O[C@H]2O[C@H](COCCCSCCS(=O)(=O)O)[C@@H](OCCCSCCS(=O)(=O)O)[C@H](OCCCSCCS(=O)(=O)O)[C@H]2OCCCSCCS(=O)(=O)O)[C@@H](OCCCSCCS(=O)(=O)O)[C@@H]1OCCCSCCS(=O)(=O)O endpoint_result="> 101 µM"
compound="O=C(O)CC(SCCCOC[C@H]1O[C@@H](O[C@H]2[C@H](OCCCSC(CC(=O)O)C(=O)O)[C@@H](OCCCSC(CC(=O)O)C(=O)O)C(OCCCSC(CC(=O)O)C(=O)O)O[C@@H]2COCCCSC(CC(=O)O)C(=O)O)[C@H](OCCCSC(CC(=O)O)C(=O)O)[C@@H](OCCCSC(CC(=O)O)C(=O)O)[C@@H]1OCCCSC(CC(=O)O)C(=O)O)C(=O)O (some centres undefined)" endpoint_result="> 181 µM"
compound=O=S(=O)(O)CCSCCCOC[C@H]1O[C@@H](OCCCSCCS(=O)(=O)O)[C@H](OCCCSCCS(=O)(=O)O)[C@@H](OCCCSCCS(=O)(=O)O)[C@@H]1OCCCSCCS(=O)(=O)O endpoint_result="> 167 µM"

Then there is this compound:
Just so you know, measured IC50 for O=C(O)CCSCCCOC[C@H]1O[C@@](COCCCSCCC(=O)O)(O[C@H]2O[C@H](COCCCSCCC(=O)O)[C@@H](OCCCSCCC(=O)O)[C@H](OCCCSCCC(=O)O)[C@H]2OCCCSCCC(=O)O)[C@@H](OCCCSCCC(=O)O)[C@@H]1OCCCSCCC(=O)O came out at > 119 µM

###

# Tested on: Vero
# method_summary: Concentration required to reduce Tacaribe virus-inducted cytopathicity by 50% (Vero cells)
# Assay type: functional, cell-based
# cond: Chlorocebus sabaeus
measurement_kind: IC50

compound="O=C(O)CC(SCCCOC[C@H]1O[C@@](COCCCSC(CC(=O)O)C(=O)O)(O[C@H]2O[C@H](COCCCSC(CC(=O)O)C(=O)O)[C@@H](OCCCSC(CC(=O)O)C(=O)O)[C@H](OCCCSC(CC(=O)O)C(=O)O)[C@H]2OCCCSC(CC(=O)O)C(=O)O)[C@@H](OCCCSC(CC(=O)O)C(=O)O)[C@@H]1OCCCSC(CC(=O)O)C(=O)O)C(=O)O (some centres undefined)" system_tested=Vero measurement_kind=IC50 endpoint_result="> 22 µM"

Documented IC50 of O=S(=O)(O)CCSCCCOC[C@H]1O[C@@H](OCCCSCCS(=O)(=O)O)[C@H](OCCCSCCS(=O)(=O)O)[C@@H](OCCCSCCS(=O)(=O)O)[C@@H]1OCCCSCCS(=O)(=O)O : > 42 µM

The compound listed as O=C(O)CCSCCCOC[C@H]1O[C@@](COCCCSCCC(=O)O)(O[C@H]2O[C@H](COCCCSCCC(=O)O)[C@@H](OCCCSCCC(=O)O)[C@H](OCCCSCCC(=O)O)[C@H]2OCCCSCCC(=O)O)[C@@H](OCCCSCCC(=O)O)[C@@H]1OCCCSCCC(=O)O has a reported IC50 of > 12 µM

Value of IC50 reported for the compound O=C(O)CC(SCCCOC[C@H]1O[C@@H](O[C@H]2[C@H](OCCCSC(CC(=O)O)C(=O)O)[C@@H](OCCCSC(CC(=O)O)C(=O)O)C(OCCCSC(CC(=O)O)C(=O)O)O[C@@H]2COCCCSC(CC(=O)O)C(=O)O)[C@H](OCCCSC(CC(=O)O)C(=O)O)[C@@H](OCCCSC(CC(=O)O)C(=O)O)[C@@H]1OCCCSC(CC(=O)O)C(=O)O)C(=O)O (some centres undefined) is > 22 µM

###

# Test system: CEM-4
# method_summary: Concentration required to reduce the viability of uninfected CEM-4 cells by 50%
# Format: functional
# cond: Homo sapiens
A collection of molecules and their measured CC50

Observe how each entry below is paired with its result.
molecule=O=C(O)CCSCCCOC[C@H]1O[C@@H](OCCCSCCC(=O)O)[C@H](OCCCSCCC(=O)O)[C@@H](OCCCSCCC(=O)O)[C@@H]1OCCCSCCC(=O)O system_tested=CEM-4 endpoint_result="> 98 µM"
molecule=CO[C@H]1O[C@H](COCCCSCCC(=O)O)[C@@H](OCCCSCCC(=O)O)[C@@H](OCCCSCCC(=O)O)[C@H]1OCCCSCCC(=O)O system_tested=CEM-4 endpoint_result="> 346 µM"
molecule="O=C(O)CC(SCCCOC[C@H]1O[C@@H](OCCCSC(CC(=O)O)C(=O)O)[C@H](OCCCSC(CC(=O)O)C(=O)O)[C@@H](OCCCSC(CC(=O)O)C(=O)O)[C@@H]1OCCCSC(CC(=O)O)C(=O)O)C(=O)O (stereo not given in full)" system_tested=CEM-4 endpoint_result="> 74 µM"
molecule=CO[C@H]1O[C@H](COCCCSCC(=O)O)[C@@H](OCCCSCC(=O)O)[C@@H](OCCCSCC(=O)O)[C@H]1OCCCSCC(=O)O system_tested=CEM-4 endpoint_result="> 370 µM"

Entry O=S(=O)(O)CCSCCCOC[C@H]1O[C@@H](OCCCSCCS(=O)(=O)O)[C@H](OCCCSCCS(=O)(=O)O)[C@@H](OCCCSCCS(=O)(=O)O)[C@@H]1OCCCSCCS(=O)(=O)O : CC50 on CEM-4 = > 83.3 µM

###

Listed below: CC50 values for each entry.
# System: CEM-4
# method_summary: Concentration required to reduce the viability of uninfected CEM-4 cells by 50%
# Format: functional
# cond: Homo sapiens

Consider the worked cases shown below.
molecule="O=C(O)CC(SCCCOC[C@H]1O[C@@](COCCCSC(CC(=O)O)C(=O)O)(O[C@H]2O[C@H](COCCCSC(CC(=O)O)C(=O)O)[C@@H](OCCCSC(CC(=O)O)C(=O)O)[C@H](OCCCSC(CC(=O)O)C(=O)O)[C@H]2OCCCSC(CC(=O)O)C(=O)O)[C@@H](OCCCSC(CC(=O)O)C(=O)O)[C@@H]1OCCCSC(CC(=O)O)C(=O)O)C(=O)O (some centres undefined)" endpoint_result="> 45.1 µM"
molecule="CO[C@H]1O[C@H](COCCCSC(CC(=O)O)C(=O)O)[C@@H](OCCCSC(CC(=O)O)C(=O)O)[C@@H](OCCCSC(CC(=O)O)C(=O)O)[C@H]1OCCCSC(CC(=O)O)C(=O)O (some centres undefined)" endpoint_result="> 265 µM"
molecule=O=S(=O)(O)CCSCCCOC[C@H]1O[C@@](COCCCSCCS(=O)(=O)O)(O[C@H]2O[C@H](COCCCSCCS(=O)(=O)O)[C@@H](OCCCSCCS(=O)(=O)O)[C@H](OCCCSCCS(=O)(=O)O)[C@H]2OCCCSCCS(=O)(=O)O)[C@@H](OCCCSCCS(=O)(=O)O)[C@@H]1OCCCSCCS(=O)(=O)O endpoint_result="> 50.6 µM"

Form: molecule = O=C(O)CCSCCCOC[C@H]1O[C@@](COCCCSCCC(=O)O)(O[C@H]2O[C@H](COCCCSCCC(=O)O)[C@@H](OCCCSCCC(=O)O)[C@H](OCCCSCCC(=O)O)[C@H]2OCCCSCCC(=O)O)[C@@H](OCCCSCCC(=O)O)[C@@H]1OCCCSCCC(=O)O ; CC50 = > 59.3 µM
